target: Solute carrier organic anion transporter family member 1B3 (Homo sapiens, UniProt Q9NPD5); details: chinese hamster, cho, 10 µM
Sequence (Q9NPD5 whole entry): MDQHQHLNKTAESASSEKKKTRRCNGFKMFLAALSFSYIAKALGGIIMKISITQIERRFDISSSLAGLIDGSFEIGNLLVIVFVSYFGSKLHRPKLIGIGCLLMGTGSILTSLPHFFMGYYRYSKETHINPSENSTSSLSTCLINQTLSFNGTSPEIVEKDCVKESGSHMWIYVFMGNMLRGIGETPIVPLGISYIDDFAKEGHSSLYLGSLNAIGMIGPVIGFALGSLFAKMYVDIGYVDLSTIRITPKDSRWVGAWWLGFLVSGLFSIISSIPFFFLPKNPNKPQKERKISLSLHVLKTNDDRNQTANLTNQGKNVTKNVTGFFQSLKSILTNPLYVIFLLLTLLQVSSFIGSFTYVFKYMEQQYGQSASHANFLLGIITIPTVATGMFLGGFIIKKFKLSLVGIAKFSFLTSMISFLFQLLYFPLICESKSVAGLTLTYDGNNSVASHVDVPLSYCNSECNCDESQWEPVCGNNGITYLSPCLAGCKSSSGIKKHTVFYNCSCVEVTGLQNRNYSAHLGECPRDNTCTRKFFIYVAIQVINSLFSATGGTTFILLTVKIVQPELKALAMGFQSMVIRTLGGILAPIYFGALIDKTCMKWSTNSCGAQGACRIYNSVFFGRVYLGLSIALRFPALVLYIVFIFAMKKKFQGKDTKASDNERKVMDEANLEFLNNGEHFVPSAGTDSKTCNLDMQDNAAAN
measure: residual activity (%)
All answers are understood in %, so give the number only.

Example entries and their recorded answers appear below.
[
  {
    "compound": "O=C1CC(c2ccccc2)Oc2ccccc21 (centres undefined)",
    "value.units": "%",
    "endpoint.result": 79.68
  },
  {
    "compound": "Cn1c(=O)[nH]c2nc[nH]c2c1=O",
    "value.units": "%",
    "endpoint.result": 96.5
  },
  {
    "compound": "Cc1cccc(N(C)C(=S)Oc2ccc3ccccc3c2)c1 [TOLNAFTATE]",
    "value.units": "%",
    "endpoint.result": 119
  },
  {
    "compound": "O=C1c2c(O)cccc2C([C@@H]2O[C@H](CO)[C@@H](O)[C@H](O)[C@H]2O)c2cc(CO)cc(O)c21 (some centres undefined)",
    "value.units": "%",
    "endpoint.result": 66.8
  },
  {
    "compound": "Cc1occc(=O)c1O",
    "value.units": "%",
    "endpoint.result": 74.61
  },
  {
    "compound": "C=C[C@@]1(C)CC(=O)[C@]2(O)[C@@]3(C)[C@@H](O)CCC(C)(C)[C@@H]3[C@H](O)[C@H](OC(C)=O)[C@@]2(C)O1",
    "value.units": "%",
    "endpoint.result": 83.25
  },
  {
    "compound": "N=C(N)NCCC[C@@H](NC(=O)[C@@H](N)Cc1ccc(O)cc1)C(=O)O [d[-Arg-2]KYOTORPHAN ACETATE]",
    "value.units": "%",
    "endpoint.result": 98.23
  },
  {
    "compound": "CCOC(=O)CCC(=O)O[C@H]1[C@H](O[C@@H]2[C@@H](C)[C@H](O[C@H]3C[C@@](C)(OC)[C@@H](O)[C@H](C)O3)[C@@H](C)C(=O)O[C@H](CC)[C@@](C)(O)[C@H](O)[C@@H](C)C(=O)[C@H](C)C[C@@]2(C)O)O[C@H](C)C[C@@H]1N(C)C [ERYTHROMYCIN ETHYLSUCCINATE]",
    "value.units": "%",
    "endpoint.result": 30.5
  },
  {
    "compound": "CC(=O)O[C@]1(C)CC[C@@]23C[C@H]1C(C)(C)[C@@H]2CC[C@H]3C [CEDRYL ACETATE]",
    "value.units": "%",
    "endpoint.result": 116.5
  },
  {
    "compound": "OCC(O)Cc1ccc2c(c1)OCO2 (centres undefined)",
    "value.units": "%",
    "endpoint.result": 83.74
  }
]

Simply: CC(=O)/C(=C\c1ccccc1)CC(=O)O , Solute carrier organic anion transporter family member 1B3 (Homo sapiens, UniProt Q9NPD5), residual activity = 110.1

Simply: CNC(=O)Oc1cccc2c1OC(C)(C)O2 , Solute carrier organic anion transporter family member 1B3 (Homo sapiens, UniProt Q9NPD5), residual activity = 84.46

Simply: CCCn1cnc2c1c(=O)n(CCCCC(C)=O)c(=O)n2C , Solute carrier organic anion transporter family member 1B3 (Homo sapiens, UniProt Q9NPD5), residual activity = 110.4

Simply: ClC1=C(Cl)C2(Cl)C3C4CC(C5OC45)C3C1(Cl)C2(Cl)Cl (centres undefined) , Solute carrier organic anion transporter family member 1B3 (Homo sapiens, UniProt Q9NPD5), residual activity = 121

Simply: CC(=O)O[C@H]1CC[C@]2(C)C(C[C@@H](OC(C)=O)[C@]3(C)C4=CC(=O)O[C@H](c5ccoc5)[C@@]4(C)CCC23)C1(C)C (stereo partly drawn) [3-DEOXO-3beta-ACETOXYDEOXYDIHYDROGEDUNIN] , Solute carrier organic anion transporter family member 1B3 (Homo sapiens, UniProt Q9NPD5), residual activity = 20.65
